Molecular target: T1, RAP1B, mGppNHp-bound (human, UniProt P61224 1-184)
T1 construct: human RAP1B; Loaded with mGppNHp
T1 sequence (looked up): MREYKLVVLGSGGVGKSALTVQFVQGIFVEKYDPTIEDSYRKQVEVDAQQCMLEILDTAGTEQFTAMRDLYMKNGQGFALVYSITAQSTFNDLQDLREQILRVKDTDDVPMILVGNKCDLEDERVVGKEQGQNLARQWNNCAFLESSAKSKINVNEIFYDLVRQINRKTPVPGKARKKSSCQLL
Experiment: fluorescence polarisation; increasing concentrations of the RA/RB domain as MBP fusion protein (0.002-300 µM; or MBP alone) titrated to mGppNHp-bound RAS protein (1 µM); 30 mM Tris-HCl pH 7.4, 100 mM NaCl, 5 mM MgCl2, 3 mM DTT; Kd from a quadratic ligand-binding equation
Details: both partners purified
measurement.name: pKd
The value called pKd is obtained by taking minus log10 of the concentration in mol/L.

Task item: If you can, please state the reported pKd value of RASSF2 RA domain, MBP fusion protein (domain or fragment, human, UniProt P50749 176-264, looked up, RASSF2 RA domain, aa 176-264 of P50749) YNHKTSVFTPAYGSVTNVRINSTMTTPQVLKLLLNKFKIENSAEEFALYVVHTSGEKQKLKATDYPLIARILQGPCEQISKVFLMEKDQ .
Reply: 4.17

Task item: Next entry: RASSF9 RA domain, MBP fusion protein (domain or fragment, human, UniProt O75901 25-119, looked up, RASSF9 RA domain, aa 25-119 of O75901) EEKEIVVWVCQEEKLVCGLTKRTTSADVIQALLEEHEATFGEKRFLLGKPSDYCIIEKWRGSERVLPPLTRILKLWKAWGDEQPNMQFVLVKADA
Reply: 4.13

Task item: What do we get for RASSF5 RA domain, MBP fusion protein (domain or fragment, UniProt Q5EBH1 200-358, looked up, RASSF5 RA domain, aa 200-358 of Q5EBH1 as the methods print it; also called NORE1; RAPL) PPTIQEIKQKIDSYNSREKHCLGMKLSEDGTYTGFIKVHLKLRRPVTVPAGIRPQSIYDAIKEVNPAATTDKRTSFYLPLDAIKQLHISSTTTVSEVIQGLLKKFMVVDNPQKFALFKRIHKDGQVLFQKLSIADYPLYLRLLAGPDTDVLSFVLKENE ?
Reply: 5.40
